Give IC50 for every item shown.
# System: MIA PaCa-2
# assay.summary: Anti-proliferation 2D CTG test (MIA PaCa-2)
# Assay type: cell-based
# stated.conditions: MIAPACA-2 cells, 500 cells/well, 5 days incubation with compound, CTG readout
Give bare numbers, in nM.

1. C=CC(=O)N1CCN(c2nc(=O)n3c4nc(c(F)cc24)-c2c(F)cccc2OCC(O)C(OCC)c2ccnc(C(C)C)c2-3)[C@@H](C)C1 (stereo partly drawn) [Example 44] ... 125
2. C=CC(=O)N1CCN(c2nc(=O)n3c4nc(c(F)cc24)-c2c(F)cccc2OCC(O)C(OCC(F)F)c2ccnc(C(C)C)c2-3)[C@@H](C)C1 (stereo partly drawn) [Example 32] ... 69

Let us examine a further case.
Please report the recorded IC50 for C=CC(=O)N1CCN(c2nc(=O)n3c4nc(c(F)cc24)-c2c(F)cccc2OCC(=O)C(OC(C)=O)c2ccnc(C(C)C)c2-3)[C@@H](C)C1 (stereo partly drawn) .
30

====

# Tested on: MIA PaCa-2
# assay.summary: Anti-proliferation 2D CTG test (MIA PaCa-2)
# Format: cell-based
# stated.conditions: MIAPACA-2 cells, 500 cells/well, 5 days incubation with compound, CTG readout
measure: pIC50
One number for each entry, as −log10 of the molar value.

Consider the reported pIC50 for these compounds:
1. C=CC(=O)N1CCN(c2nc(=O)n3c4nc(c(F)cc24)-c2c(F)cccc2OCC(OCC(F)F)C(O)c2ccnc(C(C)C)c2-3)[C@@H](C)C1 (stereo partly shown) [Example 53] ... 7.80
2. C=CC(=O)N1CCN(c2nc(=O)n3c4nc(c(F)cc24)-c2c(F)cccc2OCC(O)C(OCC)c2ccnc(C(C)C)c2-3)[C@@H](C)C1 (stereo partly shown) [Example 43] ... 8.22
3. C=CC(=O)N1CCN(c2nc(=O)n3c4nc(c(F)cc24)-c2c(ccc(Cl)c2F)OCC(O)C(OCC)c2ccnc(C(C)C)c2-3)[C@@H](C)C1 (stereo partly shown) [Example 72] ... 8.22

Let us examine a further case.
Please report the recorded pIC50 for C=CC(=O)N1CCN(c2nc(=O)n3c4nc(c(F)cc24)-c2c(F)cccc2OCC(O)C(O)c2ccnc(C(C)C)c2-3)[C@@H](C)C1 (stereo partly shown) [Example 1] .
8.00

Data origin: patent US20240101573A1
